# Tested on: M14 melanoma
# assayRemarks: NCI-60 one-dose screen, 48 h (100 = growth as untreated, 0 = no growth, -100 = all killed)
# assayContext: 10 µM unless noted
Compounds without any hit were thinned out: in the full panel of roughly 83,000, 20% have a hit.
Consider the following compounds and their measured growth readings.
Expressed in %, but write only the number.

Guide cases for growth, answers given:
CC(=O)Nc1sc2c(c1-c1nc3ccccc3s1)CNC2
21.9
Clc1ccc(Nc2ncc(Cc3cccc(Cl)c3Cl)s2)cc1
103
Cc1ccc(C2CC(c3cccc(Nc4ccncc4)c3)=Nc3c(N)nc(N)nc3N2)cc1 (stereo not given)
42.3
CCCn1c(=S)sc2c(NNC(C)=O)nc(C)nc21
108
COc1ccc2c(c1)c(-c1nc(-c3ccc4ccccc4c3)cs1)cn2C
96.9
Cc1ccc2c(c1)sc1nc(-c3c[nH]c4ccccc34)c(Nc3ccccc3)n12
107
O=C(Oc1ccc2c(c1)sc1nc(-c3ccccc3)[nH]c(=O)c12)C(F)(F)F
4.5
CC1(C)CC[C@]2(CO)CC[C@]3(C)[C@](O)([C@H](O)C[C@@H]4[C@@]5(C)CCCNC(C)(C)[C@@H]5CC[C@]43C)[C@@H]2C1
96.1
C=C1C(=O)O[C@H]2[C@H]1CC/C(COC(=O)/C=C\C(=O)NCc1ccc(Cn3c(=O)sn(CCCCl)c3=O)cc1)=C\CC[C@@]1(C)O[C@@H]21
40.4
Nc1cc(-c2ccc(Cl)cc2)nn1-c1nnc(/C=C/c2ccco2)c(=O)[nH]1
57.4

stdin: Lab note: need growth for Nc1c(Cl)cc(/C=C2\C=Cc3ccccc32)cc1Cl on M14 melanoma, anyone have it?
stdout: 105

stdin: Under M14 melanoma: growth value of COc1ccc(N/N=C/c2cn(-c3ccc(C(=O)O)cc3)nc2-c2cc3ccccc3oc2=O)cc1 ?
stdout: 42.3

stdin: Please tell me: growth of Cc1ccc(O)c(NC(=O)c2cccc(Nc3ccnc(C(F)(F)F)c3)c2)c1 , system M14 melanoma?
stdout: 68.4
